PBM binding z-score: recorded values
# System: RARg:RXRa (NR concentration 270 nM, RXRa partner concentration 90 nM)
# run-description: PBM binding z-score (relative to random genomic background probes); higher = stronger binding; sequences stand for … in GC…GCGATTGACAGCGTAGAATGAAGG

- seq-string: "CCTTACGGGTCACTAGGTTATAGCACGACGAGCG"
  system-name: "RARg:RXRa (NR concentration 270 nM, RXRa partner concentration 90 nM)"
  PBM binding z-score: 4.53
- seq-string: "TCGAGTAGGTTACCAATGGGGCATGCAGCTTTCT"
  system-name: "RARg:RXRa (NR concentration 270 nM, RXRa partner concentration 90 nM)"
  PBM binding z-score: 1.02
- seq-string: "CCGACTGGTGCAAGGTTACCATAACGCACAGCCA"
  system-name: "RARg:RXRa (NR concentration 270 nM, RXRa partner concentration 90 nM)"
  PBM binding z-score: 0.462
- seq-string: "CCTGCTAGGTCAATGGTCAGCAAAAGCAGCTCGC"
  system-name: "RARg:RXRa (NR concentration 270 nM, RXRa partner concentration 90 nM)"
  PBM binding z-score: 3.57
- seq-string: "TCGTGTAGGTTAGGGGCATTCAGAATGGCGTCGA"
  system-name: "RARg:RXRa (NR concentration 270 nM, RXRa partner concentration 90 nM)"
  PBM binding z-score: 0.648
- seq-string: "CCTTACGGGTCACTCCACGTTATAGCATCGGAGT"
  system-name: "RARg:RXRa (NR concentration 270 nM, RXRa partner concentration 90 nM)"
  PBM binding z-score: 4.04
- seq-string: "GCTAGTTGGTCAGTAAAAGTTCACACACCGGTCG"
  system-name: "RARg:RXRa (NR concentration 270 nM, RXRa partner concentration 90 nM)"
  PBM binding z-score: 3.04
- seq-string: "AGAATGAGGTTATTAAGATCCGGGAATTGCGGTC"
  system-name: "RARg:RXRa (NR concentration 270 nM, RXRa partner concentration 90 nM)"
  PBM binding z-score: 0.904
- seq-string: "TCATATAGGTAATACAGGCGAAAGTCGGCATCTA"
  system-name: "RARg:RXRa (NR concentration 270 nM, RXRa partner concentration 90 nM)"
  PBM binding z-score: 0.375
- seq-string: "ACTCGCAGGCCAAGGGTCACTCAAGATTAGTCCG"
  system-name: "RARg:RXRa (NR concentration 270 nM, RXRa partner concentration 90 nM)"
  PBM binding z-score: 4.36
- seq-string: "CCTACTGGGCTATTCAGAGGTCATTGATCATATG"
  system-name: "RARg:RXRa (NR concentration 270 nM, RXRa partner concentration 90 nM)"
  PBM binding z-score: 3.55
- seq-string: "TAGCCTACGTCATTCAGGGGCCAGTATAGAAAGC"
  system-name: "RARg:RXRa (NR concentration 270 nM, RXRa partner concentration 90 nM)"
  PBM binding z-score: 0.54
- seq-string: "ATATGTAGGTTATCTGGTCATTCAGTTTGCGCAT"
  system-name: "RARg:RXRa (NR concentration 270 nM, RXRa partner concentration 90 nM)"
  PBM binding z-score: 1.39
- seq-string: "TCTTGTAGATCAGCGGGTTAAGAAAGCTGGCCAA"
  system-name: "RARg:RXRa (NR concentration 270 nM, RXRa partner concentration 90 nM)"
  PBM binding z-score: -0.0561
- seq-string: "TTTCAAAGTTCAAAGGTAACGTAAGTATCCACAC"
  system-name: "RARg:RXRa (NR concentration 270 nM, RXRa partner concentration 90 nM)"
  PBM binding z-score: 6.29
- seq-string: "AGAATGAGGTTACCATAGATCAGGGAAACGCTTG"
  system-name: "RARg:RXRa (NR concentration 270 nM, RXRa partner concentration 90 nM)"
  PBM binding z-score: 1.89
- seq-string: "ACTATTAGTTGAGGCGAGGGCAACCGATAGGTTG"
  system-name: "RARg:RXRa (NR concentration 270 nM, RXRa partner concentration 90 nM)"
  PBM binding z-score: 0.575
- seq-string: "GGAACGAGGGCATTCGAGTGGATAGCATGGCGAT"
  system-name: "RARg:RXRa (NR concentration 270 nM, RXRa partner concentration 90 nM)"
  PBM binding z-score: 0.904
- seq-string: "ACAGATAGGTGAGTGAAGGTAACTCAGCTGGACG"
  system-name: "RARg:RXRa (NR concentration 270 nM, RXRa partner concentration 90 nM)"
  PBM binding z-score: 0.246
- seq-string: "CCTTACGGGACACGAGGTTATAGCACGACGAGCG"
  system-name: "RARg:RXRa (NR concentration 270 nM, RXRa partner concentration 90 nM)"
  PBM binding z-score: 1.49
- seq-string: "GATACAGGGTCAGCTAGAGGCCATAGTATGGAAA"
  system-name: "RARg:RXRa (NR concentration 270 nM, RXRa partner concentration 90 nM)"
  PBM binding z-score: 6.77
- seq-string: "ATATGTCGGTTATCGGGTCATTCAGTTTGCGCAT"
  system-name: "RARg:RXRa (NR concentration 270 nM, RXRa partner concentration 90 nM)"
  PBM binding z-score: 2.72
- seq-string: "ACAGACAGGTGAGTGAAGGTAACTAAGCTGGACG"
  system-name: "RARg:RXRa (NR concentration 270 nM, RXRa partner concentration 90 nM)"
  PBM binding z-score: 0.264
- seq-string: "CTACCAAGGTGAACAAGGTCGTTCATTACTATTC"
  system-name: "RARg:RXRa (NR concentration 270 nM, RXRa partner concentration 90 nM)"
  PBM binding z-score: 2.18
- seq-string: "TCATATAGGTAAAGGTGACAGTCGAACGATATGA"
  system-name: "RARg:RXRa (NR concentration 270 nM, RXRa partner concentration 90 nM)"
  PBM binding z-score: 1.61
- seq-string: "ACTATTAGTTGAGACGACGGCAACCGATAGGTTG"
  system-name: "RARg:RXRa (NR concentration 270 nM, RXRa partner concentration 90 nM)"
  PBM binding z-score: 0.00753
- seq-string: "CATACAGGGTCAGCTAGTCCAGAGTAGGGACGGC"
  system-name: "RARg:RXRa (NR concentration 270 nM, RXRa partner concentration 90 nM)"
  PBM binding z-score: 4.26
- seq-string: "GGAACGAGGGTAAAGTTGATAGCATCTGTCGACG"
  system-name: "RARg:RXRa (NR concentration 270 nM, RXRa partner concentration 90 nM)"
  PBM binding z-score: 0.683
- seq-string: "CGTCCAAGGTCAGAAAGGTCAGTGAATGCCGAGT"
  system-name: "RARg:RXRa (NR concentration 270 nM, RXRa partner concentration 90 nM)"
  PBM binding z-score: 6.18
- seq-string: "AGAATGTGGTTAAGATCAGGGAAACAGAATACAT"
  system-name: "RARg:RXRa (NR concentration 270 nM, RXRa partner concentration 90 nM)"
  PBM binding z-score: 0.287
- seq-string: "TTACCAAGGTGAATGGTCGTTGATGCACGCCTTG"
  system-name: "RARg:RXRa (NR concentration 270 nM, RXRa partner concentration 90 nM)"
  PBM binding z-score: 0.538
- seq-string: "GGTATTAGTTGAAAGGGCAACCGAATGATTCTCG"
  system-name: "RARg:RXRa (NR concentration 270 nM, RXRa partner concentration 90 nM)"
  PBM binding z-score: 1.76
